B1: HDV Ribozyme (parent)
chain: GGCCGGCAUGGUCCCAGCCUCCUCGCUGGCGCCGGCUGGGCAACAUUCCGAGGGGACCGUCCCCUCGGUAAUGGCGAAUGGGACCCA

Variants of: B1
run.description: self-cleavage, relative activity (ratio to wild type); higher = more cleavage; co-transcriptional
observed.property: self-cleavage
Answer as a number with no unit attached.

INSERT INTO assay_data (sequence_string, observed_property, obs_value) VALUES
  ('GGCCGGCAUGGUCCCAGCCUCCUCGCUGGCGCCGGCGGGGCAACAUUCCGAGGGGAGCGUCCCCUCGGUAAUGGCGAAUGGGACCCA [U37G C57G]', 'self-cleavage', 0.145),
  ('UGCCGGCAUGGUCCCAGCCUCCUCGCUGGCGCCGGCUGGGCAACAUUCCGAGGGGAGCGUCCCCUCGGUAAUGGCGAAUGGGACCCA [G1U C57G]', 'self-cleavage', 0.196),
  ('GCCCGGCAUGGUCCCAGCCUCCUCGCUGGCGCCGGCUGGGCAACAUUCCGAGGGGACCGUCCCCUCGGUAAGGGCGAAUGGGACCCA [G2C U72G]', 'self-cleavage', 0.0791),
  ('GGCCGGCAUGGUCCCAGCCUCCUCGCUGGCGCCGGCUGGGCAACAUUCCGAGGGGACCGUCCCCUUGGUAAUGGCGAACGGGACCCA [C66U U79C]', 'self-cleavage', 0.571),
  ('GGCCGGCCUGGUCCCAGCCUCCUCGCUGGCGCCGGCUGGGCAACAUUGCGAGGGGACCGUCCCCUCGGUAAUGGCGAAUGGGACCCA [A8C C48G]', 'self-cleavage', 0.175),
  ('GGCCGGCAUGGUCCCAGCCUCCUCGCUGGCGCCGGCUGCGCAACAUUCCGAGGGUACCGUCCCCUCGGUAAUGGCGAAUGGGACCCA [G39C G55U]', 'self-cleavage', 0.305),
  ('GGCCGGCAUGGUCCCAGCCUCCUCGCCGGCGCCGGCUGGGCAACAUUCCGAGGGGAACGUCCCCUCGGUAAUGGCGAAUGGGACCCA [U27C C57A]', 'self-cleavage', 0.692),
  ('GGCCGGCAUGGUCCCAGCCUCCUCGCUGGCGCCGGCUGGGCAACAUUCCGAGGGGACCGUGCCCUCGGUAAUGGCGAAUGAGACCCA [C61G G81A]', 'self-cleavage', 0.219);

Find the recorded self-cleavage belonging to GGCCGGCAUGGUCCCAGCCUCCUGGCUGGCGCCGGCUGGGCAACAUUCCGAGGGGACCGUCCCCUCGGUAAUGGCGAAUGGGAGCCA [C24G C84G] and report it.
0.0811

Check GGCCGGCAUGGUCCCAGCCUCCUCGCUGGCGCCGGAUGGGCAACAUUCCGAGGGGACCGUCCCCUCGGUUAUGGCGAAUGGGACCCA [C36A A70U] too.
0.163

// repeat for GGCCGGCAUGGUCCCAGCCUCCUCGCUGGCGCCGGCUGGGCAACAUUCCGAGGGGACCGUCCCCUCGGUACUGGCUAAUGGGACCCA [A71C G76U] and report
0.91

What about GGCCGGCAUGGUCCCAGCCUCCUCGCUGGCGCCGGCUGGGCACCAUUCCGAGGGGACCGUCCCCUCGGUAAUGGCGAAUGGCACCCA [A43C G82C] ?
0

Please give the result for GGCCGGCAUGGUCCCAGCCUCCUCGCUGGCGCCGGCUGGGCAACUUUCCGAGGGGACCGUCCCCUCGGUAAUGGCGACUGGGACCCA [A45U A78C] too.
0.13

Thanks! And GGCCGGCAUGGUCCCAGCCUCCUCGCUGGCGCCGGCUGGGCAACAUUCCGGGGGGACCGUCCCCUCGGUAAUGGCGAAUGGGACCUA [A51G C86U] ?
1.13
